Target: BTK (Homo sapiens)
Sequence (Q06187 whole entry): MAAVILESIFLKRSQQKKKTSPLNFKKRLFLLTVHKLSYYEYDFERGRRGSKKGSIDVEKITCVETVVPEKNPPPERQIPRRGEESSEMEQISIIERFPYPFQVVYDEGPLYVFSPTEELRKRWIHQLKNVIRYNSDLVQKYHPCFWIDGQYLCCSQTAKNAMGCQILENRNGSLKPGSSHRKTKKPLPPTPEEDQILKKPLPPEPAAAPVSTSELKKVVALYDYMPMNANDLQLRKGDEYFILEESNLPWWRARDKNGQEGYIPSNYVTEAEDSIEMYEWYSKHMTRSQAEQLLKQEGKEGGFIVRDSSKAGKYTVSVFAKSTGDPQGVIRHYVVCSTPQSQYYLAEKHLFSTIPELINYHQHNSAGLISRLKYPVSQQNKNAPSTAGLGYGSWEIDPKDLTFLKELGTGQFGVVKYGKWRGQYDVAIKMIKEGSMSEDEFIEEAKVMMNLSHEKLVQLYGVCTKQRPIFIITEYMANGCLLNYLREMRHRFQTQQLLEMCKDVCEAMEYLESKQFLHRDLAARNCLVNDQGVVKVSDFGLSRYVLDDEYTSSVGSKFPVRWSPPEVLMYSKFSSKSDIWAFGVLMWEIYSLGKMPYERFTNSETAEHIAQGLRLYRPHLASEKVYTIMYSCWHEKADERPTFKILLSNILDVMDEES
Experiment: BTK covalent inhibition kinetics (KI, kinact, kinact/KI)
Assay type: biochemical
Conditions: Table 5; average of 2 independent determinations (± SD)
Catalogue of pKi readings, one per entry.
Field pKi (float): negative decimal logarithm of the concentration in molar.

Examples from the recorded data:
molecule: C=CC(=O)N[C@H]1CCC[C@H]1NC(=O)c1sc2nccc3c2c1NC(=O)N3c1cnc(CC(C)C)cc1C (single isomer, unassigned)
outcome.measure: pKi
test.result: 7.31
--
molecule: C=CC(=O)NCCNC(=O)c1sc2nccc3c2c1NC(=O)N3c1cnc(CC(C)C)cc1C
outcome.measure: pKi
test.result: 5.61

Exercise: Could you tell me which pKi is on file for C=CC(=O)N1CCC(NC(=O)c2sc3nccc4c3c2NC(=O)N4c2cnc(CC(C)C)cc2C)C1 (stereo not drawn) ?
Solution: 5.59
